meta.source: patent US10034886B2

Molecular target: GLP-1R (Homo sapiens, UniProt P43220)
Construct: host or cells: GLP-1R CRE-bla CHO-K1 cells
Sequence (P43220 24-463): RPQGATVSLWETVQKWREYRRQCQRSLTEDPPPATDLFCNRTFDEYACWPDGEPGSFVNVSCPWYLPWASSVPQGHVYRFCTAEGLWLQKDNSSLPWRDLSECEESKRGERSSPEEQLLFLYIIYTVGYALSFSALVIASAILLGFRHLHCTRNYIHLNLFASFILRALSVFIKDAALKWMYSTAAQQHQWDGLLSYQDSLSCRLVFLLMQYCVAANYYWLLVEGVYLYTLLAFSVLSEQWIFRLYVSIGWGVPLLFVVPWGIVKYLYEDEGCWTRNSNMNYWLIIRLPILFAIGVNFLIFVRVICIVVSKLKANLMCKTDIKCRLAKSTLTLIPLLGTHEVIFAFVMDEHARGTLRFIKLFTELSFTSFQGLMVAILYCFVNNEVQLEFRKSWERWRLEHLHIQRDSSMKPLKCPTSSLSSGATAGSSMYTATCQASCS
Sequence (P01275 100-127 partner limits assumed): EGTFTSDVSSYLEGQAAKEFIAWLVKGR
Test: EC20 GLP-1(9-36) PAM cAMP assay: dose response of compound in the presence of fixed concentration of GLP-1(9-36)
Type: cell-based
Settings: dose response of compound in presence of fixed concentration of GLP-1(9-36), GLP-1R CRE-bla CHO-K1 cells, read-out: EC20 GLP-1(9-36) PAM EC50
pEC50: −log10 of the molar value.
Listing of entries alongside the reported pEC50.

Please review the following examples before continuing.
# return recorded pEC50 for entry C[C@@H](NC(=O)[C@H](Cc1ccc(-c2ncc(-c3ccc(C(F)(F)F)cc3)cn2)cc1)NC(=O)c1ccc(C(C)(C)C)cc1)C(=O)O
5.60 to 6.10

# return recorded pEC50 for entry CCCCCCCOc1ccc(-c2cnc(-c3ccc(C[C@H](NC(=O)c4ccc(C(C)(C)C)s4)C(=O)NC4(C(=O)O)CCCC4)cc3)nc2)cc1
5.60 to 6.10

# return recorded pEC50 for entry C[C@@H](NC(=O)[C@H](Cc1ccc(-c2ncc(-c3ccc(-c4ccccc4)cc3)cn2)cc1)NC(=O)c1ccc(C(C)(C)C)s1)C(=O)O
5.30 to 5.60

# return recorded pEC50 for entry CCCCCCCOc1ccc(-c2cnc(-c3ccc(C[C@H](NC(=O)c4ccc(C(C)(C)C)s4)C(=O)N[C@H](C)C(=O)O)cc3)nc2)nc1
> 6.10

# return recorded pEC50 for entry CCCCCCCOc1ccc(-c2cnc(-c3ccc(C[C@H](NC(=O)c4ccc(C(C)(C)C)s4)C(=O)N[C@@H](c4n[nH]c(=S)o4)[C@@H](C)O)cc3)nc2)cc1
> 6.10

Now consider a different molecule.
# return recorded pEC50 for entry CC(C)(C)c1ccc(C(=O)N[C@@H](Cc2ccc(-c3ncc(-c4ccc(OCC5CCCCC5)cc4)cn3)cc2)C(=O)NC(C(=O)O)C(O)c2ccccc2)s1 (stereo partly drawn)
5.60 to 6.10

====

Molecular target: GLP-1R (Homo sapiens, UniProt P43220)
Construct: host or cells: GLP-1R CRE-bla CHO-K1 cells
Experiment: EC20 GLP-1(9-36) PAM cAMP assay: dose response of compound in the presence of fixed concentration of GLP-1(9-36)
Type: cell-based
Details: dose response of compound in presence of fixed concentration of GLP-1(9-36), GLP-1R CRE-bla CHO-K1 cells, read-out: EC20 GLP-1(9-36) PAM EC50
pEC50: −log10 of the molar value.
Listing of entries alongside the reported pEC50.

Please review the following examples before continuing.
Lab note: record pEC50 of CCCCCCCOc1ccc(-c2cnc(-c3ccc(C[C@H](NC(=O)c4ccc(C(C)(C)C)s4)C(=O)N[C@H](C(=O)O)C(C)c4ccccc4)cc3)nc2)cc1 (stereo partly drawn) tested on GLP-1R (Homo sapiens, UniProt P43220).
5.30 to 5.60

Lab note: record pEC50 of CCCCCCCOc1ccc(-c2cnc(-c3ccc(C[C@H](NC(=O)c4ccc(C(C)(C)C)s4)C(=O)N4CC(C(=O)O)CCC4C)cc3)nc2)cc1 (stereo partly drawn) tested on GLP-1R (Homo sapiens, UniProt P43220).
> 6.10

Lab note: record pEC50 of Cc1ccc(-c2ccc(-c3cnc(-c4ccc(C[C@H](NC(=O)c5ccc(C(C)(C)C)s5)C(=O)N5CC(C(=O)O)C5)cc4)nc3)c(F)c2)cc1Cl tested on GLP-1R (Homo sapiens, UniProt P43220).
> 6.10

Next:
Lab note: record pEC50 of CC(C)(C)c1ccc(C(=O)N[C@@H](Cc2ccc(-c3ncc(-c4ccc(OCC5CCCC5)cc4)cn3)cc2)C(=O)N2CC(C(=O)O)C2)s1 tested on GLP-1R (Homo sapiens, UniProt P43220).
5.00 to 5.30

Lab note: record pEC50 of CC[C@H]1CC[C@H](c2ccc(-c3cnc(-c4ccc(C[C@H](NC(=O)c5cnc(C(C)(C)C)nc5)C(=O)N5CC(C(=O)O)C5)cc4)nc3)cc2)CC1 tested on GLP-1R (Homo sapiens, UniProt P43220).
> 6.10

Lab note: record pEC50 of CCCCCCCOc1ccc(-c2cnc(-c3ccc(C[C@H](NC(=O)c4ccc(C(C)C)cc4)C(=O)NCCC(=O)O)cc3)nc2)cc1 tested on GLP-1R (Homo sapiens, UniProt P43220).
5.60 to 6.10

Lab note: record pEC50 of C=CCCOc1ccc(-c2cnc(-c3ccc(C[C@H](NC(=O)c4ccc(C(C)(C)C)cc4)C(=O)NCCC(=O)O)cc3)nc2)cc1 tested on GLP-1R (Homo sapiens, UniProt P43220).
5.30 to 5.60

Lab note: record pEC50 of COc1ccc2cc(-c3cnc(-c4ccc(C[C@H](NC(=O)c5ccc(C(C)(C)C)s5)C(=O)N[C@H](C)C(=O)O)cc4)nc3)ccc2c1 tested on GLP-1R (Homo sapiens, UniProt P43220).
5.00 to 5.30

Lab note: record pEC50 of C[C@@H](NC(=O)[C@H](Cc1ccc(-c2ncc(-c3ccc(N(c4ccccc4)c4ccccc4)cc3)cn2)cc1)NC(=O)c1ccc(C(C)(C)C)s1)C(=O)O tested on GLP-1R (Homo sapiens, UniProt P43220).
5.60 to 6.10

Lab note: record pEC50 of CCCCCCCOc1ccc(-c2cnc(-c3ccc(C[C@H](NC(=O)c4ccc(CC)cn4)C(=O)N4CC(C(=O)O)C4)cc3)nc2)cc1 tested on GLP-1R (Homo sapiens, UniProt P43220).
5.30 to 5.60

Lab note: record pEC50 of CCCCCCCOc1ccc(-c2cnc(-c3ccc(C[C@H](NC(=O)c4cnc(C(C)(C)C)nc4)C(=O)NC(C(=O)O)C(O)c4ccccc4)cc3)nc2)cc1 (stereo partly drawn) tested on GLP-1R (Homo sapiens, UniProt P43220).
5.60 to 6.10

Lab note: record pEC50 of CCCCCCCOc1ccc(-c2cnc(-c3ccc(C[C@H](NC(=O)c4ccc(OC(C)C)cc4)C(=O)NC(C(=O)O)C(O)c4ccccc4)cc3)nc2)cc1 (stereo partly drawn) tested on GLP-1R (Homo sapiens, UniProt P43220).
5.60 to 6.10

====

Target: GLP-1R (Homo sapiens)
Construct: host or cells: GLP-1R CRE-bla CHO-K1 cells
Experiment: EC20 GLP-1(9-36) PAM cAMP assay: dose response of compound in the presence of fixed concentration of GLP-1(9-36)
Format: cell-based
Settings: GLP-1R CRE-bla CHO-K1 cells, compound dose response with fixed concentration of GLP-1(9-36), read-out: EC20 GLP-1(9-36) PAM EC50
Listing of entries alongside the reported EC50.

Please review the following examples before continuing.
# return recorded EC50 for entry CCC[C@H]1CC[C@H](C2CCN(c3cnc(-c4ccc(CC(NC(=O)c5ccc(C(C)(C)C)s5)C(=O)NS(=O)(=O)C(C)C)cc4)nc3)CC2)CC1 (stereo partly drawn) [Compound 1545]
< 800 nM

# return recorded EC50 for entry C[C@@H](NC(=O)[C@H](Cc1ccc(-c2ncc(/C=C/c3cccc(F)c3)cn2)cc1)NC(=O)c1ccc(C(C)(C)C)s1)C(=O)O [Compound 1248]
5000 to 10000 nM

# return recorded EC50 for entry CCCc1ccc(-c2ccc(-c3cnc(-c4ccc(C[C@H](NC(=O)c5ccc(OC(C)(C)C)cc5)C(=O)N5CC(C(=O)O)C5)cc4)nc3)c(F)c2)cc1 [Compound 1403]
< 800 nM

# return recorded EC50 for entry CCC[C@H]1CC[C@H](C2CCN(c3cnc(-c4ccc(C[C@H](NC(=O)c5ccc(C(C)(C)C#N)s5)C(=O)N5CC(C(=O)O)C5)cc4)nc3)CC2)CC1 [Compound 1513]
< 800 nM

Next:
# return recorded EC50 for entry CC[C@H]1CC[C@H](c2ccc(-c3cnc(-c4ccc(C[C@H](NC(=O)c5ccc(C(F)(F)F)cc5)C(=O)O)cc4)nc3)cc2)CC1 [Compound 1374]
800 to 2500 nM

# return recorded EC50 for entry CC(C)(C)c1ccc(C(=O)N[C@@H](Cc2ccc(-c3ncc(-c4ccc(-c5ccc(C(F)(F)F)cc5)cc4F)cn3)cc2)C(=O)O)s1 [Compound 1364]
< 800 nM

# return recorded EC50 for entry CCCc1ccc(-c2ccc(-c3cnc(-c4ccc(C[C@H](NC(=O)c5ccc(CC)s5)C(=O)N5CC(C(=O)O)C5)cc4)nc3)c(F)c2)cc1 [Compound 1397]
< 800 nM

# return recorded EC50 for entry CC[C@H]1CC[C@H](c2ccc(-c3cnc(-c4ccc(C[C@H](NC(=O)c5ccc(C(F)(F)F)s5)C(=O)O)cc4)nc3)cc2)CC1 [Compound 1369]
800 to 2500 nM

# return recorded EC50 for entry CC[C@H]1CC[C@H](c2ccc(-c3cnc(-c4ccc(C[C@H](NC(=O)c5ccc(Cl)cc5)C(=O)O)cc4)nc3)cc2)CC1 [Compound 1386]
800 to 2500 nM
